Below, each entry is listed alongside its reported LC retention time.
Assay: RP, Waters ACQUITY Premier BEH C18, 100 × 2.1 mm, 1.7 µm, 40 °C, 0.3 to 0.4 mL/min, estimated dead time 0.73 min; A: water + 0.1% formic acid; B: acetonitrile + 0.1% formic acid; gradient (min/%B) 0/0.5 0.1/0.5 10/80 10.1/99.5 12/0.5 12.1/0.5 14.5/0.5
Conditions: stereoisomer not certain
Provide only the numeric value, understood in min.

| COMPOUND | LC retention time / min |
| --- | --- |
| Oc1ccccc1O [PYROCATECHOL] | 3.85 |
| O=C(O)CCCCC(=O)O [ADIPATE] | 3.99 |
| COc1ccc2[nH]cc(CCN)c2c1 [5-METHOXYTRYPTAMINE] | 3.73 |
| O=c1cc(-c2ccccc2)oc2cc(O)cc(O)c12 [5,7-DIHYDROXYFLAVONE] | 7.23 |
| O=C(O)c1ccccc1C(=O)O [PHTHALIC ACID] | 4.52 |
| NC(Cc1cc(I)c(Oc2cc(I)c(O)c(I)c2)c(I)c1)C(=O)O (centres undefined) [THYROXINE] | 6.62 |

So for OCC1OC(OCC2OC(OC3(CO)OC(CO)C(O)C3O)C(O)C(O)C2O)C(O)C(O)C1O (centres undefined) [RAFFINOSE] , the logged LC retention time turned out to be 0.962

So for CSCCC(=O)C(=O)O [2-OXO-4-METHYLTHIOBUTANOIC ACID] , the logged LC retention time turned out to be 3.7

So for CC(CCC(=O)O)C(=O)O (centres undefined) [2-METHYLGLUTARATE] , the logged LC retention time turned out to be 4.07

----------
Assay: RP, Waters ACQUITY Premier BEH C18, 100 × 2.1 mm, 1.7 µm, 40 °C, 0.3 to 0.4 mL/min, estimated dead time 0.73 min; A: water + 0.1% formic acid; B: acetonitrile + 0.1% formic acid; gradient (min/%B) 0/0.5 0.1/0.5 10/80 10.1/99.5 12/0.5 12.1/0.5 14.5/0.5
Settings: stereoisomer not certain
Classify by LC retention time. Ranges: range 1 = under 3 min, range 2 = from 3 min up to 6 min, range 3 = 6 min and over

Observe how each entry below is paired with its result.
| MOLECULE | LABEL_CLASS |
| --- | --- |
| CC(C)=CCCC(C)=CCC1=C(C)C(=O)c2ccccc2C1=O | range 3 |
| Nc1nc2c(ncn2C2OC(CO)C(O)C2O)c(=O)[nH]1 (stereo not drawn) | range 2 |
| N[C@@H](Cc1cc(I)c(O)c(I)c1)C(=O)O | range 2 |

Query :: Which category fits this record: Cc1cnc(=O)[nH]c1N
Result :: range 1

Query :: Which category fits this record: CCC(=O)OC(CC(=O)[O-])C[N+](C)(C)C (stereo not drawn)
Result :: range 1

Query :: Which category fits this record: O=C(O)C1OC(Oc2cc3oc(-c4ccccc4)cc(=O)c3c(O)c2O)C(O)C(O)C1O (stereo not drawn)
Result :: range 2

Query :: Which category fits this record: O=CCc1c[nH]c2ccccc12
Result :: range 3

----------
Below, each entry is listed alongside its reported LC retention time.
Experiment: RP, Waters ACQUITY Premier BEH C18, 100 × 2.1 mm, 1.7 µm, 40 °C, 0.3 to 0.4 mL/min, estimated dead time 0.73 min; A: water + 0.1% formic acid; B: acetonitrile + 0.1% formic acid; gradient (min/%B) 0/0.5 0.1/0.5 10/80 10.1/99.5 12/0.5 12.1/0.5 14.5/0.5
Details: stereoisomer not certain
Provide only the numeric value, understood in min.

So for CC(C)CC1NC(=O)C2CCCN2C1=O (stereo unspecified) , the logged LC retention time turned out to be 4.92

So for O=C(O)CNC(=O)CCc1ccccc1 , the logged LC retention time turned out to be 4.84

----------
Assay: RP, Waters ACQUITY Premier BEH C18, 100 × 2.1 mm, 1.7 µm, 40 °C, 0.3 to 0.4 mL/min, estimated dead time 0.73 min; A: water + 0.1% formic acid; B: acetonitrile + 0.1% formic acid; gradient (min/%B) 0/0.5 0.1/0.5 10/80 10.1/99.5 12/0.5 12.1/0.5 14.5/0.5
Conditions: stereoisomer not certain
Classify by measured LC retention time: met if it is equal to or exceeds 4 min, not met if it is smaller.

Observe how each entry below is paired with its result.
| COMPOUND | LABEL_CLASS |
| --- | --- |
| CC1OC(OCC2OC(Oc3c(-c4ccc(O)c(O)c4)oc4cc(O)cc(O)c4c3=O)C(O)C(O)C2O)C(O)C(O)C1O (stereo not given) | met |
| CC(=O)NC1C(O)OC(CO)C(O)C1OC(C)C(=O)O (stereo not given) [N-ACETYLMURAMATE] | not met |
| Cn1cnc2c1c(=O)[nH]c(=O)n2C | not met |
| CCCCCCC=CCCCCCCCC(=O)O | met |

Query :: Is it the case that Cc1c(O)cc2c(c1C)OC(C)(CCC(=O)O)CC2 (stereo not given) has LC retention time reaching or exceeding 4 min?
Result :: met

Query :: Is it the case that COc1cc(CCC(=O)O)ccc1O [DIHYDROFERULIC ACID] has LC retention time reaching or exceeding 4 min?
Result :: met

Query :: Is it the case that O=C(O)CNC(=O)Cc1ccccc1 has LC retention time reaching or exceeding 4 min?
Result :: met

Query :: Is it the case that NC(CCS)C(=O)O (stereo not given) has LC retention time reaching or exceeding 4 min?
Result :: not met

Query :: Is it the case that Cc1ccccc1C(=O)O has LC retention time reaching or exceeding 4 min?
Result :: met

----------
Below, each entry is listed alongside its reported LC retention time.
Test: RP, Waters ACQUITY Premier BEH C18, 100 × 2.1 mm, 1.7 µm, 40 °C, 0.3 to 0.4 mL/min, estimated dead time 0.73 min; A: water + 0.1% formic acid; B: acetonitrile + 0.1% formic acid; gradient (min/%B) 0/0.5 0.1/0.5 10/80 10.1/99.5 12/0.5 12.1/0.5 14.5/0.5
Conditions: stereoisomer not certain
Output should be the measured figure followed by the unit it is expressed in.

Reference set (2 entries):
| COMPOUND | ENDPOINT_VALUE |
| --- | --- |
| O=CNC(Cc1ccccc1)C(=O)O (stereo not drawn) | 4.77 min |
| CCCc1oc(CCC(=O)O)c(C(=O)O)c1C | 6.56 min |

Next up:
So for Nc1nc2c(ncn2C2CC(O)C(CO)O2)c(=O)[nH]1 (stereo not drawn) , the logged LC retention time turned out to be 3.39 min

----------
Assay: RP, Waters ACQUITY Premier BEH C18, 100 × 2.1 mm, 1.7 µm, 40 °C, 0.3 to 0.4 mL/min, estimated dead time 0.73 min; A: water + 0.1% formic acid; B: acetonitrile + 0.1% formic acid; gradient (min/%B) 0/0.5 0.1/0.5 10/80 10.1/99.5 12/0.5 12.1/0.5 14.5/0.5
Conditions: stereoisomer not certain
RECORDED_METRIC: LC retention time (min)
Provide only the numeric value, understood in min.

Reference set (3 entries):
| COMPOUND | LC retention time, min |
| --- | --- |
| CCCCCCC(N)C(=O)O (racemic) | 4.04 |
| O=C(O)CC(=O)O [MALONATE] | 1.21 |
| O=C(O)C(O)CCO (centres undefined) [2,4-DIHYDROXYBUTANOIC ACID] | 1.07 |

So for NCC(O)c1ccc(O)c(O)c1 (centres undefined) , the logged LC retention time turned out to be 0.887

So for CC=CC=CC(=O)O [SORBATE] , the logged LC retention time turned out to be 5.71

So for CC1C(=O)OC2C(O)C34C5CC(C(C)(C)C)C36C(OC(=O)C6O)OC4(C(=O)O5)C12O (centres undefined) [GINKGOLIDE B] , the logged LC retention time turned out to be 5.64

So for CC(CCC(=O)NCC(=O)O)C1CCC2C3CCC4CC(O)CCC4(C)C3CC(O)C12C (centres undefined) [DEOXYCHOLIC ACID GLYCINE CONJUGATE] , the logged LC retention time turned out to be 7.24

So for CC(C)=CCOc1c2occc2cc2ccc(=O)oc12 , the logged LC retention time turned out to be 7.46

So for CC(C)CC(O)C(=O)O (centres undefined) [HYDROXYISOCAPROIC ACID] , the logged LC retention time turned out to be 4.88

So for O=C(O)c1ccc2ccccc2n1 [2-QUINOLINECARBOXYLATE] , the logged LC retention time turned out to be 4.24

So for COc1c2ccoc2cc2oc(=O)ccc12 , the logged LC retention time turned out to be 6.74

So for CC(=O)NC(CS)C(=O)O (centres undefined) , the logged LC retention time turned out to be 4

So for CC(CC(=O)O)CC(=O)O [METHYGLUTARATE] , the logged LC retention time turned out to be 4.05

So for O=C(O)CCCCCCCCC(=O)O [SEBACATE] , the logged LC retention time turned out to be 6.03

So for Cc1cc2nc[nH]c2cc1C , the logged LC retention time turned out to be 4.48

So for CSCC[C@H](NC=O)C(=O)O , the logged LC retention time turned out to be 4.06

So for CC1OC(n2cnc3c(N)ncnc32)C(O)C1O (centres undefined) , the logged LC retention time turned out to be 3.5

So for Cc1ccc(O)c(O)c1 , the logged LC retention time turned out to be 4.34

So for O=C(C=Cc1ccc(O)c(O)c1)OC(Cc1ccc(O)c(O)c1)C(=O)O (centres undefined) [ROSMARINATE] , the logged LC retention time turned out to be 5.44

So for COc1ccc(C2CC(=O)c3c(O)cc(OC4OC(COC5OC(C)C(O)C(O)C5O)C(O)C(O)C4O)cc3O2)cc1O (centres undefined) , the logged LC retention time turned out to be 4.77

So for COC(=O)CCCN [METHYL 4-AMINOBUTYRATE] , the logged LC retention time turned out to be 1.4

So for NCCc1ccc(O)c(O)c1 , the logged LC retention time turned out to be 1.74

So for C[C@H](O)[C@@H](O)[C@H](O)[C@H](O)CO , the logged LC retention time turned out to be 0.959

So for CC(CC(=O)CC(C)C1CC(O)C2(C)C3=C(C(=O)CC12C)C1(C)CCC(=O)C(C)(C)C1CC3O)C(=O)O (centres undefined) , the logged LC retention time turned out to be 6.82

So for Nc1ncnc2c1ncn2C1OC(COP(=O)(O)O)C(OP(=O)(O)O)C1O (centres undefined) [ADENOSINE 3',5'-DIPHOSPHATE] , the logged LC retention time turned out to be 1.11

So for CCC=CCC1C(=O)CCC1CC(=O)OC (centres undefined) [METHYL JASMONATE] , the logged LC retention time turned out to be 7.43

So for OCCc1ccc(O)c(O)c1 [HYDROXYTYROSOL] , the logged LC retention time turned out to be 3.89

So for Cc1cc2nc3c(=O)[nH]c(=O)nc-3n(CC(O)C(O)C(O)CO)c2cc1C (centres undefined) , the logged LC retention time turned out to be 4.4

So for O=C1Cc2ccccc2N1 [1,3-DIHYDRO-(2H)-INDOL-2-ONE] , the logged LC retention time turned out to be 5.06
